test: Biodistribution of 99mTc complexes in mice; format: in vivo, Balb/c mice; conditions: 3 min
property: biodistribution muscle (% Injected dose)

Study these solved cases before continuing.
O=C(O)CN(CCN(CC(=O)O)CC(=O)Nc1ccc(Cl)cc1O)CC(=O)Nc1ccc(Cl)cc1O [Compound 2]	14.89
O=C(O)CN(CCN(CC(=O)O)CC(=O)Nc1ccccc1O)CC(=O)Nc1ccccc1O [Compound 1]	13.18
CC(C)(C)c1ccc(O)c(NC(=O)CN(CCN(CC(=O)O)CC(=O)Nc2cc(C(C)(C)C)ccc2O)CC(=O)O)c1 [Compound 4]	9.92

P: Cc1cc(C)c(O)c(NC(=O)CN(CCN(CC(=O)O)CC(=O)Nc2cc(C)cc(C)c2O)CC(=O)O)c1 [Compound 6]
Q: Nc1ccc(O)c(NC(=O)CN(CCN(CC(=O)O)CC(=O)Nc2cc(N)ccc2O)CC(=O)O)c1 [Compound 5]
Lab notebook, comparison: P versus Q , higher biodistribution muscle goes to which? Returns: label corresponding to the selected item.
Q

* * *

assay: Biodistribution of 99mTc complexes in mice; assay type: in vivo, Balb/c mice; settings: 30 min
property: biodistribution skin (% Injected dose)

O=C(O)CN(CCN(CC(=O)O)CC(=O)Nc1ccc(Cl)cc1O)CC(=O)Nc1ccc(Cl)cc1O [Compound 2]	5.58

a: Nc1ccc(O)c(NC(=O)CN(CCN(CC(=O)O)CC(=O)Nc2cc(N)ccc2O)CC(=O)O)c1 [Compound 5]
b: Cc1cc(C)c(O)c(NC(=O)CN(CCN(CC(=O)O)CC(=O)Nc2cc(C)cc(C)c2O)CC(=O)O)c1 [Compound 6]
c: O=C(O)CN(CCN(CC(=O)O)CC(=O)Nc1ccccc1O)CC(=O)Nc1ccccc1O [Compound 1]
Order the items by recorded biodistribution skin; the first position goes to the largest value. Output spec: labels arranged per the requested ranking.
a, c, b

* * *

assay: Biodistribution of 67Ga complexes in mice; type: in vivo, balb/c mice; settings: 5 min
property: biodistribution muscle (% ID)

Study these solved cases before continuing.
O=C(O)CN(CCN(CC(=O)O)CC(=O)Nc1ccc(Cl)cc1O)CC(=O)Nc1ccc(Cl)cc1O	5.50
CC(C)(C)c1ccc(O)c(NC(=O)CN(CCN(CC(=O)O)CC(=O)Nc2cc(C(C)(C)C)ccc2O)CC(=O)O)c1	4.29

a: Cc1cc(C)c(O)c(NC(=O)CN(CCN(CC(=O)O)CC(=O)Nc2cc(C)cc(C)c2O)CC(=O)O)c1
b: O=C(O)CN(CCN(CC(=O)O)CC(=O)Nc1ccccc1O)CC(=O)Nc1ccccc1O
Field: lower recorded biodistribution muscle (choose a or b ) Returns: label corresponding to the selected item.
a
(a: 6.35 % ID, b: 12.14 % ID)

* * *

experiment: Biodistribution of 99mTc complexes in rats; type: in vivo, Australian Albino Wistar Rats; details: rat, thymus, rats, 3 min, read-out: biodistribution thymus
property: tissue uptake at 0.05 h (%ID/g)

Study these solved cases before continuing.
O=C(O)CN(CCN(CC(=O)O)CC(=O)Nc1ccccc1O)CC(=O)Nc1ccccc1O	0.27
O=C(O)CN(CCN(CC(=O)O)CC(=O)Nc1cc([N+](=O)[O-])ccc1O)CC(=O)Nc1cc([N+](=O)[O-])ccc1O	0.32

P: O=C(O)CN(CCN(CC(=O)O)CC(=O)Nc1ccc(Cl)cc1O)CC(=O)Nc1ccc(Cl)cc1O
Q: Nc1ccc(O)c(NC(=O)CN(CCN(CC(=O)O)CC(=O)Nc2cc(N)ccc2O)CC(=O)O)c1
Field: lower recorded tissue uptake at 0.05 h (choose P or Q ) Returns: label corresponding to the selected item.
P
